System: bleomycin-induced scleroderma C57BL6J mice
test: Bleomycin scleroderma in mice (p16, COL1A1 mRNA, dermal thickness), Example 24-2, Table 48
Assay type: in vivo, mouse
measurement_context: daily for 21 days, untreated 459 (±38.7)
quantity_measured: Dermal Thickness

Record CC1(C)C=C2[C@H]3CC[C@@H]4[C@@]5(C)CCC(=O)C(C)(C)[C@@H]5CC[C@@]4(C)[C@]3(C)CC[C@@]2(C(=O)O)CC1 [LX-2007, Moronic acid] ; system bleomycin-induced scleroderma C57BL6J mice; Dermal Thickness = 421 (±83.6) μm

Record O=C(C(C[N+](=O)[O-])=NO)N1CCN(C(c2ccc(Cl)cc2)c2ccc(Cl)cc2)CC1 [LX-403] ; system bleomycin-induced scleroderma C57BL6J mice; Dermal Thickness = 356 (±36.3) μm

Record C=C(C)[C@@H]1CC[C@]2(C(=O)O)CC[C@]3(C)[C@H](CC[C@@H]4[C@@]5(C)CC[C@H](O)C(C)(C)[C@@H]5CC[C@]43C)[C@@H]12 [LX-2005, Betulinic acid] ; system bleomycin-induced scleroderma C57BL6J mice; Dermal Thickness = 432 (±61.7) μm

Record Cc1cccc([C@H](C)c2cnc[nH]2)c1C [LX-6807, Dexmedetomidine] ; system bleomycin-induced scleroderma C57BL6J mice; Dermal Thickness = 315 (±29.8) μm

Record COC(=O)[C@H]1Cc2c([nH]c3ccccc23)[C@H](c2ccc(S(C)(=O)=O)cc2)N1C(=O)CCl [LX-5401] ; system bleomycin-induced scleroderma C57BL6J mice; Dermal Thickness = 401 (±46.3) μm

Record CCCC\C=C/C=C/C=C\CCCCCCCC(=O)O [LX-2707, Punicic acid] ; system bleomycin-induced scleroderma C57BL6J mice; Dermal Thickness = 389 (±23.6) μm

Record O=C1C2CCN(CC2)C1CNC(=O)C(F)(F)F (stereo not drawn) [LX-5701] ; system bleomycin-induced scleroderma C57BL6J mice; Dermal Thickness = 358 (±21.4) μm

Record C[C@H]1[C@H](C)CC[C@]2(C(=O)O)CC[C@]3(C)C(=CC[C@@H]4[C@@]5(C)C[C@@H](O)[C@H](O)C(C)(C)[C@@H]5CC[C@]43C)[C@H]12 [LX-2002, Corosolic acid] ; system bleomycin-induced scleroderma C57BL6J mice; Dermal Thickness = 427 (±60.1) μm

Record C[C@H]1[C@H](C)CC[C@]2(C(=O)O)CC[C@]3(C)C(=CC[C@@H]4[C@@]5(C)CC[C@H](O)C(C)(C)[C@@H]5CC[C@]43C)[C@H]12 [LX-2001, Ursolic acid] ; system bleomycin-induced scleroderma C57BL6J mice; Dermal Thickness = 394 (±78.4) μm

Record CC1(C)CC[C@]2(C(=O)O)CC[C@]3(C)C(=CC[C@@H]4[C@@]5(C)CC[C@H](O)C(C)(C)[C@@H]5CC[C@]43C)[C@@H]2C1 [LX-2003, Oleanolic acid] ; system bleomycin-induced scleroderma C57BL6J mice; Dermal Thickness = 411 (±81.3) μm

Record C[C@@H]1CC[C@@]23C[C@H](O)C(=O)[C@@]2(O)[C@]1(C)[C@H](OC(=O)CCl)C[C@@H](C1=CCn2c(=O)n(-c4ccccc4)c(=O)n2C1)[C@@H]3C [LX-1801] ; system bleomycin-induced scleroderma C57BL6J mice; Dermal Thickness = 418 (±42.3) μm

Record C#CC(=O)N1[C@@H](CCCC)Cc2cc(OC)ccc2[C@@H]1c1ccc(NC23CC4CC(CC(C4)C2)C3)cc1 [LX-5411] ; system bleomycin-induced scleroderma C57BL6J mice; Dermal Thickness = 376 (±47.1) μm

====

Tested on: naturally aged C57BL6J mice
test: Frailty (open field, wire hanging, grip strength, muscle and fat tissue) in naturally aged mice, Example 21-7, Table 23
Format: in vivo, mouse
measurement_context: untreated aged = 100%
quantity_measured: Open Field Test Time in Center (%)

Past entries and their recorded results:
{"columns": ["compound", "quantity_measured", "result"],
 "data": [
  ["O=C1C2CCN(CC2)C1CNC(=O)C(F)(F)F (centres unmarked)", "Open Field Test Time in Center (%)", "259 (±38.6) %"],
  ["COC(=O)[C@]12CCC(C)(C)C[C@H]1[C@H]1C(=O)C=C3[C@@]4(C)C=C(C#N)C(=O)C(C)(C)[C@@H]4CC[C@@]3(C)[C@]1(C)CC2", "Open Field Test Time in Center (%)", "109 (±8.6) %"]
]}

The measured Open Field Test Time in Center (%) associated with `CCCC\C=C/C=C/C=C\CCCCCCCC(=O)O` reads 198 (±19.4) %

The measured Open Field Test Time in Center (%) associated with `CC1(C)CC[C@]2(NC(=O)C(C)(F)F)CC[C@]3(C)[C@H](C(=O)C=C4[C@@]5(C)C=C(C#N)C(=O)C(C)(C)[C@@H]5CC[C@]43C)[C@@H]2C1` reads 145 (±10.2) %

The measured Open Field Test Time in Center (%) associated with `Cc1cccc([C@H](C)c2cnc[nH]2)c1C` reads 269 (±13.3) %

====

Test system: senescent cells
test: Viability of senescent cells (CellTiter-Glo), Example 17, Table 13
measurement_context: Homo sapiens, read-out: Survival (%)
quantity_measured: viability at 1.1 µM (%)
Response body: numeric value in %, unit text excluded.

{"columns": ["molecule", "result_units", "viability at 1.1 µM"],
 "data": [
  ["CC(=O)NCCOC(=O)[C@H](Oc1cccc(C(F)(F)F)c1)c1ccc(Cl)cc1 [LX-9409, Arhalofenate]", "%", 80.5],
  ["NC(=O)c1ccc(-c2cc3c(NC4CCS(=O)(=O)CC4)cccc3n2CC(F)(F)F)cc1", "%", 103]
]}

The measured viability at 1.1 µM associated with `COC(=O)[C@H]1Cc2c([nH]c3ccccc23)[C@H](c2ccc(S(C)(=O)=O)cc2)N1C(=O)CCl` reads 99.5

The measured viability at 1.1 µM associated with `C=C(C#N)CNc1c(OC)ccc2ccc(-c3ccc(S(C)(=O)=O)cn3)cc12` reads 97.2

The measured viability at 1.1 µM associated with `COc1cc(Cc2cnc(N)nc2N)cc(OC)c1OC` reads 102

The measured viability at 1.1 µM associated with `CS(=O)(=O)c1ccc(Oc2cc(F)cc(C#N)c2)c2c1[C@H](O)[C@H](F)[C@@H]2F` reads 105

The measured viability at 1.1 µM associated with CCN(CC1C(=O)C2CCN1CC2)C(=O)C(Cl)(Cl)Cl (centres unmarked) reads 97.5

The measured viability at 1.1 µM associated with CC12CCN(CC1)C(CNC(=O)C(F)(F)F)C2=O (centres unmarked) reads 96.5

The measured viability at 1.1 µM associated with `Nc1nc2nc[nH]c2c(=S)[nH]1` reads 106

The measured viability at 1.1 µM associated with `NS(=O)(=O)NCCNc1nonc1C(=NO)Nc1ccc(F)c(Br)c1` reads 54.5

The measured viability at 1.1 µM associated with Nc1cc(F)ccc1NC(=O)c1ccc(CNC(=O)/C=C/c2cccnc2)cc1 [LX-6809, Chidamide] reads 87.5

The measured viability at 1.1 µM associated with `O=c1sn(-c2cccc3ccccc23)c(=O)n1Cc1ccccc1` reads 94.7

The measured viability at 1.1 µM associated with `NS(=O)(=O)OC[C@@H]1C[C@@H](n2ccc3c(N[C@H]4CCc5ccccc54)ncnc32)C[C@@H]1O` reads 1.5

The measured viability at 1.1 µM associated with `CN(C)c1cccc(-c2c3c(=O)n(-c4ccccc4Cl)[nH]c3cc(=O)n2C)c1` reads 101

====

Entries and their Wire Hanging Test Time (%)
Test system: naturally aged C57BL6J mice
test: Frailty (open field, wire hanging, grip strength, muscle and fat tissue) in naturally aged mice, Example 21-7, Table 23
Type: in vivo, mouse
measurement_context: untreated aged = 100%

Past entries and their recorded results:
{"columns": ["molecule", "Wire Hanging Test Time (%)"],
 "data": [
  ["O=C1C2CCN(CC2)C1CNC(=O)C(F)(F)F (centres unmarked)", "141 (±7.3) %"],
  ["COC(=O)[C@]12CCC(C)(C)C[C@H]1[C@H]1C(=O)C=C3[C@@]4(C)C=C(C#N)C(=O)C(C)(C)[C@@H]4CC[C@@]3(C)[C@]1(C)CC2", "120 (±7.5) %"],
  ["Cc1cccc([C@H](C)c2cnc[nH]2)c1C", "156 (±16.4) %"],
  ["CCCC\\C=C/C=C/C=C\\CCCCCCCC(=O)O", "135 (±13.3) %"]
]}

Now for a further molecule.
Record `CC1(C)CC[C@]2(NC(=O)C(C)(F)F)CC[C@]3(C)[C@H](C(=O)C=C4[C@@]5(C)C=C(C#N)C(=O)C(C)(C)[C@@H]5CC[C@]43C)[C@@H]2C1` ; system naturally aged C57BL6J mice; Wire Hanging Test Time (%) = 117 (±3.8) %
